# cAMP-dependent protein kinase (PKA) (Homo sapiens, UniProt P22694+P17612+P22612): IC50 values follow
A number alone suffices; assume µM.

Illustrative cases are given below, each with its answer.
In [3]: df
Out[3]:
                                 chemsmiles                               assaysystem  readout  readoutunits  measuredvalue
0  CO[C@H]1[C@@H](N(C)C(=O)c2cccc([N+](=O)[O-])c2)C[C@@H]2O[C@@]1(C)n1c3ccccc3c3c4c(c5c6ccccc6n2c5c31)C(=O)NC4  cAMP-dependent protein kinase (PKA) (Homo sapiens, UniProt P22694+P17612+P22612)     IC50            µM            2.5
1  CO[C@H]1[C@@H](N(C)C(=O)CNC(=O)OC(C)(C)C)C[C@@H]2O[C@@]1(C)n1c3ccccc3c3c4c(c5c6ccccc6n2c5c31)C(=O)NC4  cAMP-dependent protein kinase (PKA) (Homo sapiens, UniProt P22694+P17612+P22612)     IC50            µM           2.25
2  COC(=O)CN(C)[C@H]1C[C@@H]2O[C@](C)([C@H]1OC)n1c3ccccc3c3c4c(c5c6ccccc6n2c5c31)C(=O)NC4  cAMP-dependent protein kinase (PKA) (Homo sapiens, UniProt P22694+P17612+P22612)     IC50            µM            3.2

State IC50 on cAMP-dependent protein kinase (PKA) (Homo sapiens, UniProt P22694+P17612+P22612). Entry: "CO[C@H]1[C@@H](N(C)C(=O)c2cccnc2)C[C@@H]2O[C@@]1(C)n1c3ccccc3c3c4c(c5c6ccccc6n2c5c31)C(=O)NC4" 0.38

Check cAMP-dependent protein kinase (PKA) (Homo sapiens, UniProt P22694+P17612+P22612) data and give IC50 for "CO[C@H]1[C@@H](N(C)Cc2ccccc2)C[C@@H]2O[C@@]1(C)n1c3ccccc3c3c4c(c5c6ccccc6n2c5c31)C(=O)NC4" . 0.48

# credit: ChEMBL document CHEMBL1127758
